biological target: UniProtKB Q13822
pIC50: −log10 of the molar value.
Outcome label depends on pIC50 relative to 7: at/above gives Condition met, below gives Condition not met.

>>> answer_label("CCc1nn2c(C)cc(N3CCN(CC(=O)N4CC(O)C4)[C@H](C)C3)nc2c1N(C)c1nc(-c2ccc(F)cc2)c(C#N)s1")
"Condition not met"
>>> answer_label("O=C1S/C(=C\\c2ccc(OCc3cccc(B(O)O)c3)cc2)C(=O)N1Cc1ccc(F)cc1 [HA130, reference compound]")
"Condition met"
>>> answer_label("CCN(c1nc(-c2ccc(F)cc2)c(C#N)s1)c1c2nc(N3CCN(CC(=O)N4CC(O)C4)CC3)ccc2nn1CC")
"Condition met"
>>> answer_label("CCn1nc2c(F)cc(N3CCN(CC(=O)N4CC(O)C4)CC3C(F)(F)F)cc2c1N(C)c1nc(-c2ccc(F)cc2)c(C#N)s1 (single isomer, unassigned) [Compound S-0131A]")
"Condition met"
>>> answer_label("CCc1nn2ccc(N3CCN(CC(=O)N4CC(O)C4)C(=O)C3)nc2c1N(C)c1nc(-c2ccc(F)cc2)c(C#N)s1 [Compound S-0104CP]")
"Condition not met"

Where these numbers come from: patent US11591342B2
